# experiment.description: Regional brain tissue binding by equilibrium dialysis, human post-mortem brain homogenate (control and AD donors)
# Type: in vitro ADME
# measurement.setup: human, post-mortem brain tissue homogenate, control donors, PrCx, pH 7.4, Control donors, PrCx; technical replicates; 1 µM, 6 h, 37 °C; read-out: fu,brain,ROI Median
measurement.type: fraction unbound at 6 h, 1 µM

compound: COc1ccc2c(c1)c(CC(=O)O)c(C)n2C(=O)c1ccc(Cl)cc1
measured.number: 0.083

1: CC12CC3CC(C)(C1)CC(N)(C3)C2 [Memantine, memantine]
2: Cc1nc2n(c(=O)c1CCN1CCC(c3noc4cc(F)ccc34)CC1)CCCC2O (stereo not drawn)
Of 1 and 2 , which one carries the higher reported fraction unbound at 6 h, 1 µM? Which one? Tell me its label.
2
(2: 0.183, 1: 0.086)
